- METHOD SUMMARY: AUC (0 to 6 hrs) in DSS-induced colitis C57BL/6 mouse model at 25 mg/kg, po measured up to 6 hrs by UPLC-MS/MS analysis
- Format: ADME, organism-based
- Parameters: route oral, dose 25 mg/kg, time <=6
- CONDITION LABEL: in vivo
ENDPOINT NAME: AUC (microM/L.hr)

>  <COMPOUND STRUCTURE>
O=C(O)[C@H](CO)NC(=O)[C@@H]1C[C@@H](O)CN1

>  <REPORTED>
1.34

$$$$

[A] O=C(O)[C@@H](CO)NC(=O)[C@H]1C[C@@H](O)CN1
[B] O=C(O)[C@H](CO)NC(=O)[C@@H]1C[C@H](O)CN1
[C] O=C(O)[C@H](CO)NC(=O)[C@H]1C[C@H](O)CN1
## Task Could you please order the items by AUC, going from the lowest number to the highest? Your answer should be the labels, listed in the requested order.
## Result B, C, A
(B: 1.62 microM/L.hr, C: 8.55 microM/L.hr, A: 54.65 microM/L.hr)

[a] O=C(O)[C@H](CO)NC(=O)[C@H]1C[C@@H](O)CN1
[b] O=C(N[C@H](CO)C(=O)O)[C@@H]1C[C@@H](O)CN1
## Task Dear colleague, could you let me know whether a or b has the lower recorded AUC? Thanks. Identify your pick by its label.
## Result b
(b: 1.67 microM/L.hr, a: 44.55 microM/L.hr)

----------
- METHOD SUMMARY: Metabolic stability in healthy C57BL/6 mouse colonic flora homogenate assessed as half life measured up to 12 hrs by HPLC analysis
- Assay type: ADME
ENDPOINT NAME: half-life

Field: example entries. Status: answers known.
>  <COMPOUND STRUCTURE>
O=C(O)[C@H](CO)NC(=O)[C@@H]1C[C@H](O)CN1

>  <half-life>
1.22 h

$$$$
>  <COMPOUND STRUCTURE>
O=C(N[C@H](CO)C(=O)O)[C@@H]1C[C@@H](O)CN1

>  <half-life>
0.91 h

$$$$
>  <COMPOUND STRUCTURE>
O=C(O)[C@@H](CO)NC(=O)[C@H]1C[C@@H](O)CN1

>  <half-life>
> 12 h

$$$$
>  <COMPOUND STRUCTURE>
O=C(N[C@H](CO)C(=O)O)[C@@H]1C[C@H](O)CN1

>  <half-life>
> 12 h

$$$$
>  <COMPOUND STRUCTURE>
O=C(O)[C@@H](CO)NC(=O)[C@H]1C[C@H](O)CN1

>  <half-life>
> 12 h

$$$$
>  <COMPOUND STRUCTURE>
O=C(O)[C@H](CO)NC(=O)[C@H]1C[C@H](O)CN1

>  <half-life>
> 12 h

$$$$

## Task For O=C(O)[C@H](CO)NC(=O)[C@H]1C[C@@H](O)CN1 , write its half-life.
## Result > 12 h

## Task For O=C(O)[C@H](CO)NC(=O)[C@@H]1C[C@@H](O)CN1 , write its half-life.
## Result 0.86 h

----------
- METHOD SUMMARY: Cmax in DSS-induced colitis C57BL/6 mouse model at 25 mg/kg, po measured up to 6 hrs by UPLC-MS/MS analysis
- Format: ADME, organism-based
- Parameters: route oral, dose 25 mg/kg, time <=6
- CONDITION LABEL: in vivo
ENDPOINT NAME: Cmax (µM)

>  <COMPOUND STRUCTURE>
O=C(O)[C@H](CO)NC(=O)[C@@H]1C[C@H](O)CN1

>  <READOUT UNITS>
µM

>  <Cmax>
1.05

$$$$
>  <COMPOUND STRUCTURE>
O=C(N[C@H](CO)C(=O)O)[C@@H]1C[C@H](O)CN1

>  <READOUT UNITS>
µM

>  <Cmax>
22.1

$$$$
>  <COMPOUND STRUCTURE>
O=C(N[C@H](CO)C(=O)O)[C@@H]1C[C@@H](O)CN1

>  <READOUT UNITS>
µM

>  <Cmax>
0.64

$$$$
>  <COMPOUND STRUCTURE>
O=C(O)[C@H](CO)NC(=O)[C@H]1C[C@@H](O)CN1

>  <READOUT UNITS>
µM

>  <Cmax>
22.7

$$$$
>  <COMPOUND STRUCTURE>
O=C(O)[C@H](CO)NC(=O)[C@@H]1C[C@@H](O)CN1

>  <READOUT UNITS>
µM

>  <Cmax>
0.52

$$$$

[1] O=C(O)[C@@H](CO)NC(=O)[C@H]1C[C@@H](O)CN1
[2] O=C(O)[C@H](CO)NC(=O)[C@H]1C[C@H](O)CN1
## Task When the recorded Cmax values are compared, which is smaller: that of 1 or that of 2 ? Selection: enter the item's label.
## Result 2

----------
Reported half-life values for a set of compounds
- METHOD SUMMARY: Metabolic stability in DSS-induced C57BL/6 inflammatory mouse model colonic flora homogenate assessed as half life measured up to 12 hrs by HPLC analysis
- Format: ADME
- CONDITION LABEL: C57BL/6, mouse

Please review the following examples before continuing.
>  <COMPOUND STRUCTURE>
O=C(O)[C@H](CO)NC(=O)[C@@H]1C[C@@H](O)CN1

>  <half-life>
0.88 h

$$$$
>  <COMPOUND STRUCTURE>
O=C(O)[C@@H](CO)NC(=O)[C@H]1C[C@@H](O)CN1

>  <half-life>
> 12 h

$$$$
>  <COMPOUND STRUCTURE>
O=C(O)[C@@H](CO)NC(=O)[C@H]1C[C@H](O)CN1

>  <half-life>
> 12 h

$$$$
>  <COMPOUND STRUCTURE>
O=C(N[C@H](CO)C(=O)O)[C@@H]1C[C@H](O)CN1

>  <half-life>
> 12 h

$$$$
>  <COMPOUND STRUCTURE>
O=C(O)[C@H](CO)NC(=O)[C@H]1C[C@H](O)CN1

>  <half-life>
> 12 h

$$$$
>  <COMPOUND STRUCTURE>
O=C(O)[C@H](CO)NC(=O)[C@H]1C[C@@H](O)CN1

>  <half-life>
> 12 h

$$$$
>  <COMPOUND STRUCTURE>
O=C(O)[C@H](CO)NC(=O)[C@@H]1C[C@H](O)CN1

>  <half-life>
1.15 h

$$$$

Pending compound:
## Task Supply reported half-life belonging to this compound: O=C(N[C@H](CO)C(=O)O)[C@@H]1C[C@@H](O)CN1
## Result 0.99 h

----------
- METHOD SUMMARY: Tmax in DSS-induced colitis C57BL/6 mouse model at 25 mg/kg, po measured up to 6 hrs by UPLC-MS/MS analysis
- Format: ADME, organism-based
- CONDITION LABEL: in vivo
ENDPOINT NAME: Tmax (h)

>  <COMPOUND STRUCTURE>
O=C(N[C@H](CO)C(=O)O)[C@@H]1C[C@@H](O)CN1

>  <Tmax (h)>
2

$$$$
>  <COMPOUND STRUCTURE>
O=C(O)[C@@H](CO)NC(=O)[C@H]1C[C@H](O)CN1

>  <Tmax (h)>
4

$$$$
>  <COMPOUND STRUCTURE>
O=C(N[C@H](CO)C(=O)O)[C@@H]1C[C@H](O)CN1

>  <Tmax (h)>
4

$$$$
>  <COMPOUND STRUCTURE>
O=C(O)[C@H](CO)NC(=O)[C@@H]1C[C@H](O)CN1

>  <Tmax (h)>
2

$$$$

[I] O=C(O)[C@H](CO)NC(=O)[C@@H]1C[C@@H](O)CN1
[II] O=C(O)[C@H](CO)NC(=O)[C@H]1C[C@@H](O)CN1
## Task Which has the smaller recorded Tmax, I or II ? Please respond with the label that marks your chosen entry.
## Result I

[a] O=C(O)[C@H](CO)NC(=O)[C@H]1C[C@H](O)CN1
[b] O=C(O)[C@@H](CO)NC(=O)[C@H]1C[C@@H](O)CN1
## Task Just curious, which one has the larger Tmax reading, a or b ? Pick one; state its label.
## Result b

----------
# Lookup of reported half-life keyed by entry
- METHOD SUMMARY: Metabolic stability in healthy C57BL/6 mouse liver assessed as half life measured up to 12 hrs by HPLC analysis
- Format: ADME, tissue-based

Below, each entry is followed by its recorded half-life result.
>  <COMPOUND STRUCTURE>
O=C(N[C@H](CO)C(=O)O)[C@@H]1C[C@@H](O)CN1

>  <half-life>
19.2 min

$$$$
>  <COMPOUND STRUCTURE>
O=C(O)[C@H](CO)NC(=O)[C@H]1C[C@@H](O)CN1

>  <half-life>
> 720 min

$$$$
>  <COMPOUND STRUCTURE>
O=C(O)[C@H](CO)NC(=O)[C@@H]1C[C@@H](O)CN1

>  <half-life>
16.2 min

$$$$

## Task Supply half-life value. Item: O=C(O)[C@@H](CO)NC(=O)[C@H]1C[C@H](O)CN1
## Result > 720 min

## Task // Input: O=C(O)[C@H](CO)NC(=O)[C@H]1C[C@H](O)CN1 . Output its half-life only.
## Result > 720 min

## Task Please report the measured half-life for O=C(O)[C@@H](CO)NC(=O)[C@H]1C[C@@H](O)CN1
## Result > 720 min

## Task State its half-life for this compound: O=C(O)[C@H](CO)NC(=O)[C@@H]1C[C@H](O)CN1
## Result 30.6 min

## Task Please give measured half-life of the following entry: O=C(N[C@H](CO)C(=O)O)[C@@H]1C[C@H](O)CN1
## Result > 720 min
